molecular target: RAC-beta serine/threonine-protein kinase (Homo sapiens) (UniProt P31751); conditions: at 0.1 µM;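 also: reported figure is the mean percent inhibition of AKT2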
Sequence (P31751 whole entry): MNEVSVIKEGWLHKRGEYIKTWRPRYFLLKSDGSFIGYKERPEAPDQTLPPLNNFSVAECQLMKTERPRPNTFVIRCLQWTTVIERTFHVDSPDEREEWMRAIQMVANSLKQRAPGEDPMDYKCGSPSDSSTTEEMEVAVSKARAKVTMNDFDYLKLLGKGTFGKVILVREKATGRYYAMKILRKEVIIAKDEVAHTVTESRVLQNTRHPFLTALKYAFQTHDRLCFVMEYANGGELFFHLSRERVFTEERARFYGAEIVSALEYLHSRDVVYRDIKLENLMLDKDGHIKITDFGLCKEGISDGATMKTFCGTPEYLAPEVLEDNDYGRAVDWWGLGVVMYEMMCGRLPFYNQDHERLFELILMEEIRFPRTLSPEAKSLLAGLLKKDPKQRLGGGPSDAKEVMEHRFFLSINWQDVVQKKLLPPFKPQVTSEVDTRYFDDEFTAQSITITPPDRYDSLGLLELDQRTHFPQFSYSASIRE
Quick reference for inhibition among some compounds
experimental endpoint: inhibition (%)

> print(dat)
                                    compound                              study.system  experimental.endpoint  number
 1  C#Cc1cccc(Nc2ncnc3ccc(OCCCCNCCS(C)(=O)=O)cc23)c1  RAC-beta serine/threonine-protein kinase (Homo sapiens) (UniProt P31751)             inhibition   -0.89
 2  CS(=O)(=O)CCNCc1ccc(-c2ccc3ncnc(Nc4ccc(OCc5ccccc5)c(Br)c4)c3c2)o1  RAC-beta serine/threonine-protein kinase (Homo sapiens) (UniProt P31751)             inhibition    -3.3
 3  COc1cc(C)c(N(C)C(=O)CN(C)C)cc1Nc1nc(Nc2cccc(F)c2C(N)=O)c2cc[nH]c2n1  RAC-beta serine/threonine-protein kinase (Homo sapiens) (UniProt P31751)             inhibition    -3.1
 4  COC(=O)Nc1nc2ccc(Sc3ccc(NC(=O)Nc4cc(C(F)(F)F)ccc4F)cc3)cc2[nH]1  RAC-beta serine/threonine-protein kinase (Homo sapiens) (UniProt P31751)             inhibition   -0.16
 5  Nc1nccc(-c2c(-c3ccc(F)cc3)ncn2C2CCC(O)CC2)n1 (centres undefined)  RAC-beta serine/threonine-protein kinase (Homo sapiens) (UniProt P31751)             inhibition   -2.08
 6     NCc1ccc(-n2c(-c3nonc3N)nc3cnccc32)cc1  RAC-beta serine/threonine-protein kinase (Homo sapiens) (UniProt P31751)             inhibition     3.5
 7  Fc1ccc(-c2ncn(C3CCNCC3)c2-c2ccnc(Oc3ccc(F)c(F)c3)n2)cc1  RAC-beta serine/threonine-protein kinase (Homo sapiens) (UniProt P31751)             inhibition    -3.3
 8  CN(c1ccc(NC(=O)Nc2c(Cl)cccc2Cl)cc1)c1ccnc(Nc2cccc(CS(C)(=O)=O)c2)n1  RAC-beta serine/threonine-protein kinase (Homo sapiens) (UniProt P31751)             inhibition     0.5
 9  c1ccc(-c2n[nH]cc2-c2ccnc(-c3ccc(OCCN4CCOCC4)cc3)c2)nc1  RAC-beta serine/threonine-protein kinase (Homo sapiens) (UniProt P31751)             inhibition   -0.23
10  COc1cc2ncn(-c3cc(OCCc4ccccc4)c(C(N)=O)s3)c2cc1OC  RAC-beta serine/threonine-protein kinase (Homo sapiens) (UniProt P31751)             inhibition    1.52
11  O=C(Nc1n[nH]c2cc(-c3cc(F)ccc3F)ccc12)C1CC1  RAC-beta serine/threonine-protein kinase (Homo sapiens) (UniProt P31751)             inhibition    1.23
12  CCC(=O)Nc1ccc(C)c(-c2ccc(C(=O)NCC3CC3)cc2)c1  RAC-beta serine/threonine-protein kinase (Homo sapiens) (UniProt P31751)             inhibition     2.4
13  Cc1ccc(C(=O)NC(C)C)cc1-c1ccc(C(=O)NCC2CC2)cc1  RAC-beta serine/threonine-protein kinase (Homo sapiens) (UniProt P31751)             inhibition   -4.74
14  O=C(NCC1CC1)c1ccc(-c2cccc(C(=O)NC3CC3)c2)cc1  RAC-beta serine/threonine-protein kinase (Homo sapiens) (UniProt P31751)             inhibition    1.68
15  CCS(=O)(=O)c1ccc(OC)c(Nc2ncc(-c3cccc(-c4ccccc4F)c3)o2)c1  RAC-beta serine/threonine-protein kinase (Homo sapiens) (UniProt P31751)             inhibition    0.25
16  C[C@@H](Oc1cc(-n2cnc3ccc(OCC4CCN(C)CC4)cc32)sc1C(N)=O)c1ccccc1Cl  RAC-beta serine/threonine-protein kinase (Homo sapiens) (UniProt P31751)             inhibition    1.73
17  CN(C)c1ccc2c(c1)/C(=C/Nc1ccc(S(N)(=O)=O)cc1)C(=O)N2  RAC-beta serine/threonine-protein kinase (Homo sapiens) (UniProt P31751)             inhibition    0.75
18  COc1cc(Nc2ncc3c(C)nc(-c4cccc(Oc5ccccc5)c4)n3n2)cc(OC)c1OC  RAC-beta serine/threonine-protein kinase (Homo sapiens) (UniProt P31751)             inhibition    0.47
19  CCc1ccc(Oc2nccc(-c3c(-c4ccc(F)cc4)ncn3C3CCNCC3)n2)cc1  RAC-beta serine/threonine-protein kinase (Homo sapiens) (UniProt P31751)             inhibition    2.05
20        CNC(=O)c1cncc(/C=C/c2c(C)cccc2C)c1  RAC-beta serine/threonine-protein kinase (Homo sapiens) (UniProt P31751)             inhibition   -3.43
21  COc1cccc(-n2cnc3c(N/N=C/c4ccncc4)ncnc32)c1  RAC-beta serine/threonine-protein kinase (Homo sapiens) (UniProt P31751)             inhibition   -3.57
22  COc1cc2ncn(-c3cc(OCc4ccccc4C(F)(F)F)c(C(C)=O)s3)c2cc1OC  RAC-beta serine/threonine-protein kinase (Homo sapiens) (UniProt P31751)             inhibition    0.85
23  CS(=O)(=O)CCNCc1cc(-c2cc3c(Nc4ccc(OCc5cccc(F)c5)c(Cl)c4)ncnc3s2)cs1  RAC-beta serine/threonine-protein kinase (Homo sapiens) (UniProt P31751)             inhibition     0.7
24  CN(C)CCOc1ccc(-c2cc(-c3ccc4c(c3)CCC4=NO)c(-c3ccncc3)o2)cc1  RAC-beta serine/threonine-protein kinase (Homo sapiens) (UniProt P31751)             inhibition   -0.71

These data points were gathered from ChEMBL document CHEMBL1961873.
